# SYSTEM_UNDER_TEST: METTL3-METTL14 (Homo sapiens)
# Sequence (Q9HCE5 whole entry): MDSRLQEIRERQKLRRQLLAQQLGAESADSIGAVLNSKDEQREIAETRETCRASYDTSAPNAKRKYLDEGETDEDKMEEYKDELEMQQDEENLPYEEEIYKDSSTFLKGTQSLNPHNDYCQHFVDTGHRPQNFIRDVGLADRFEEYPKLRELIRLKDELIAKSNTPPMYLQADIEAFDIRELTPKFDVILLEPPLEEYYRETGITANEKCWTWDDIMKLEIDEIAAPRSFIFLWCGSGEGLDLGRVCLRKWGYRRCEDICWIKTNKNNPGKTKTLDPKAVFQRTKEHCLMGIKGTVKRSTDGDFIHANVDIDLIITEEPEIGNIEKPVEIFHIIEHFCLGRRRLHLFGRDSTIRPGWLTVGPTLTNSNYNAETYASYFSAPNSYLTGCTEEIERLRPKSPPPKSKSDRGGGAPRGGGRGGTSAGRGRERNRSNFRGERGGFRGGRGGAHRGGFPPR
# Sequence (Q86U44 whole entry): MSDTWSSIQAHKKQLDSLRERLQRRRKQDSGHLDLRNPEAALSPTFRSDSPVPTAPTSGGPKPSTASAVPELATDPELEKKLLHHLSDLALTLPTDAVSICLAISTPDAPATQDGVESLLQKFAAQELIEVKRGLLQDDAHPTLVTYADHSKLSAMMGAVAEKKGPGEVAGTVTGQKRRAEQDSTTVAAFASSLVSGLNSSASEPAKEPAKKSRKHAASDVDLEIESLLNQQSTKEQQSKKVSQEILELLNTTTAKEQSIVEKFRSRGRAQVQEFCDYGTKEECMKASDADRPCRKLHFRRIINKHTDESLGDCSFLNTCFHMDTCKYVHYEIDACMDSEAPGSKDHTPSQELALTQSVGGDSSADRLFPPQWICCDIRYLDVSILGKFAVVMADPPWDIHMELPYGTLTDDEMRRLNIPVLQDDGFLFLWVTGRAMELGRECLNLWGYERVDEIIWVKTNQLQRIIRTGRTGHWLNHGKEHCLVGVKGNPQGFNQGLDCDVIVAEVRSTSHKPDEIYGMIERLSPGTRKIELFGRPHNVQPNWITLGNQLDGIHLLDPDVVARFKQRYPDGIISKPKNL
# ASSAY_SUMMARY: biochemical
Record form. Attribute: IC50. Fill in for each entry.
Answer in nM, number only, no unit symbol.

Quick check: IC50 of CC1(C)CCN(Cc2cc(F)c(N3CC(=O)NC4(CCN(c5cc(NCC6CCN(C(=O)CCCCCCCCN7CCN(c8cccc9c8C(=O)N(C8CCC(=O)NC8=O)C9=O)CC7)CC6)ncn5)CC4)C3)cc2F)CC1 (centres unmarked) ?
5

Return reported IC50; argument: CC1(C)CCN(Cc2ccc(N3CC(=O)NC4(CCN(c5cc(NCCCNC(=O)CNc6cccc7c6CN(C6CCC(=O)NC6=O)C7=O)ncn5)CC4)C3)cc2)CC1 (centres unmarked)
520

Any idea what IC50 was measured for CC1(C)CCN(Cc2ccc(N3CC(=O)NC4(CCN(c5cc(NCCCNC(=O)CCn6cc(CNc7cccc8c7C(=O)N(C7CCC(=O)NC7=O)C8=O)nn6)ncn5)CC4)C3)cc2)CC1 (centres unmarked) ?
1800

What value of IC50 has been recorded for this entry: CC1(C)CCN(Cc2ccc(N3CC(=O)NC4(CCN(c5cc(NCCCNC(=O)CCCCCCCCn6cc(CNc7cccc8c7C(=O)N(C7CCC(=O)NC7=O)C8=O)nn6)ncn5)CC4)C3)cc2)CC1 (centres unmarked)
480

Need IC50, item CC1(C)CCN(Cc2cc(F)c(N3CC(=O)NC4(CCN(c5cc(NCc6cccc(CNC(=O)CCn7cc(CNc8cccc9c8C(=O)N(C8CCC(=O)NC8=O)C9=O)nn7)c6)ncn5)CC4)C3)cc2F)CC1 (centres unmarked)
200
